Source of measurements: PubChem BioAssay AID651719

# SUBJECT_OF_TEST: Galanin receptor type 3 (Homo sapiens)
# TEST: GalR3 antagonists in HEK293 cells, primary screen, cell-based, fluorescence readout (AID 651719);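 further: forskolin and galanin both at EC90 stimulate the cells; cAMP rise reported by CNG channel membrane potential dye signal; 0% = forskolin plus galanin with DMSO and 100% = forskolin alone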
# CONDITION_SET: HEK293 GalR3-CNG cAMP membrane potential fluorescence; at 3 µM; hits give high values; galR3 body fused to GalR1 C-terminus
Screen size: about 360,000 compounds; about 1,600 (0.44%) were called active. Shown is part of a subset that was picked to be rich in actives.
MEASURED_PROPERTY: inhibition (%)
Give bare numbers, in %.

# example entries with known answers
smi=Cc1cc2c(nc1C)CCCN2C measured_property=inhibition recorded_result=-4.98
smi=O=C(NCc1ccncc1)C(=O)NCc1ccco1 measured_property=inhibition recorded_result=-2.62

[in] Tell me its inhibition given "Cc1[nH]c2ccccc2c1CC(=O)Nc1ccc(Nc2cccnc2)c(-c2cccc(Cl)c2)c1" as the entry.
[out] -2.4

---

# SUBJECT_OF_TEST: Galanin receptor type 3 (Homo sapiens)
# TEST: GalR3 antagonists in HEK293 cells, primary screen, cell-based, fluorescence readout (AID 651719);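 further: forskolin and galanin both at EC90 stimulate the cells; cAMP rise reported by CNG channel membrane potential dye signal; 0% = forskolin plus galanin with DMSO and 100% = forskolin alone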
# CONDITION_SET: HEK293 GalR3-CNG cAMP membrane potential fluorescence; at 3 µM; hits give high values; galR3 body fused to GalR1 C-terminus
Hit rate of the full screen: of about 360,000 compounds, about 1,600 (0.44%) were called active. Many of the other results were omitted from the sample, so actives are more common in it than they were.
MEASURED_PROPERTY: inhibition (%)
Give bare numbers, in %.

Can you give me inhibition for all of these, one by one?
1. CC(Nc1ccc([N+](=O)[O-])cc1[N+](=O)[O-])c1ccccc1 (stereo not drawn)
2. COC(=O)c1nc(NC(=O)c2ccc(C(C)(C)C)cc2)n[nH]1
3. CCCn1nc(C(=O)NNC(=O)CCOc2ccccc2OCC)c2ccccc2c1=O
4. C[C@H](CO)N1C[C@H](C)[C@@H](CN(C)C(=O)Nc2ccccc2F)OCc2cn(nn2)CCCC1=O
5. COc1ccc(S(=O)(=O)Nc2ccc3c(c2)C(=O)N([C@H](C)CO)C[C@H](C)[C@@H](CN(C)C)OCCCC[C@H](C)O3)cc1
6. O=C(/C=C/c1c(Cl)cccc1Cl)NCc1ccccc1
7. O=C(/C=C/c1c(F)cccc1Cl)Nc1nn[nH]n1

[out]
[-6.77, -1.62, -2.63, -5.31, -6.44, -6.6, 13.1]

Each of the following entries comes with a recorded value; kindly state inhibition for each.
1. CSc1nc(N)c(C#N)c(-c2ccccc2Cl)c1C#N
2. COC(=O)C1=C(C)N(Cc2ccccc2C(F)(F)F)C(=NCc2ccc(OC)cc2)NC1c1cccc(C(F)(F)F)c1 (stereo not drawn)
3. COc1cc2c(cc1OC)C(/C=C/c1ccco1)=NCC2

[out]
[13.6, -3.7, -5.84]

Quick batch: inhibition for everything below.
1. O=C(CCc1ccccc1)Nc1nn[nH]n1
2. CCN1/C(=C\c2ccc3ccccc3[n+]2CC)Sc2cc(C)ccc21
3. CCOC(=O)CNC(=O)N(C)[C@H]1C[C@H]2c3[nH]c4c(-c5ccc6c(c5)OCO6)cccc4c3CCN2C(=O)[C@H]1[C@H](C)O

[out]
1: -3.85; 2: 45.8; 3: -5.71
